- Test system: Chordin-like protein 2 (CHRDL2)
- method.summary: compounds binding chordin-like 2 – biochemical, small-molecule microarray, 635 nm fluorescence, primary screen (AID 1126);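 also: printed compound slides probed with Chrdl2 protein at 4 µg/mL for 1 h at 4 C; score merges 667 nm emission intensity with signal to noise over three replicate slides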
- condition.info: fluorescence 635 nm, higher = more signal
endpoint.name: composite z-score
Answer using only a numeral; do not append any unit.

# example entries with known answers
{"compound": "COC(=O)C(CC#Cc1ccc2c(c1)[C@]1(C(=O)N2)[C@H](c2ccc(O)cc2)N2[C@H](c3ccccc3)[C@H](c3ccccc3)OC(=O)[C@H]2[C@@H]1C(=O)N1CCN(c2ncccn2)CC1)C(=O)OC", "value": 0.0801}
{"compound": "CCCCCCc1nc(-c2ccc(-c3ccc(Cl)c(Cl)c3)o2)c(C)c2c1[Si](C(C)C)(C(C)C)OC2", "value": -1.06}
{"compound": "COC(=O)[C@@]1(Cc2ccccc2)[C@H]2c3cc(C(=O)N(C)C)n(CCc4c[nH]c5ccc(O)cc45)c3C[C@H]2CN1C(=O)c1ccccc1", "value": -0.676}

Suppose we examine the compound CC(C)=CCCC(C)=CC(O)C1C=CC2C(=O)N(c3ccccc3)C(=O)C2N1Nc1ccc(C(C)C)cc1 (centres undefined) ; what composite z-score value has been reported?
-1.01

###

Listing: z-score of selected molecules
- method.summary: plasmodial surface anion channel blockers, osmotic lysis – cell-based, P. falciparum Indochina, OD700, 18 h, primary screen (AID 1157)
- condition.info: P. falciparum Indochina infected erythrocytes, osmotic lysis OD700, 18 h; higher = more signal, called active from +8 up or from −8 down
Answer using only a numeral; do not append any unit.

# example entries with known answers
{"molecule": "CC(C)OC(=O)C=C1C[C@@H](c2cccc(Cl)c2)O[C@@H](c2cccc(Cl)c2)O1", "z-score": 0.61}
{"molecule": "COc1ccc([C@H]2C[C@H]3C(I)=C[C@@H]2C(=O)[C@]32CO2)cc1", "z-score": -0.0393}
{"molecule": "COc1cc(CO)cc(I)c1O[C@H]1C=C(C(=O)NCCO)C[C@@H](NC[C@@H]2CCCO2)[C@@H]1O", "z-score": 0.303}
{"molecule": "NC(=O)N1C(=O)C2C(C1=O)C1C=C(CCCO)C2C(C2CC2)N1Cc1cc2c(cc1Br)OCO2 (centres undefined)", "z-score": 0.357}
{"molecule": "CCOc1ccc(N2C(=O)CSC2c2cccc([N+](=O)[O-])c2)cc1 (centres undefined)", "z-score": 0.0093}
{"molecule": "CC(C)(C)OC(=O)CC[C@@]1(C(=O)N2CCCCC2)N=C(c2ccc(OCCCO)cc2)O[C@@H]1c1ccccc1", "z-score": 2.14}
{"molecule": "O=C(O)[C@@]1(CCS(=O)(=O)c2ccccc2)N=C(c2ccc(OCCCO)cc2)O[C@H]1c1ccccc1", "z-score": 0.789}
{"molecule": "O=C1NC(=O)C2C1C=CC(C(O)c1ccc(I)cc1)N2Nc1ccccn1 (centres undefined)", "z-score": 0.729}

For the next question, use this molecule.
Suppose we examine the molecule CN1C(=O)C2C=CC(C(O)c3c(F)cccc3Cl)N(NC(=O)OC(C)(C)C)C2C1=O (centres undefined) ; what z-score value has been reported?
0.58

###

- method.summary: JC-1 mitochondrial signal, unstimulated MM1S myeloma – cell-based, JC-1 fluorescence, 24 h, 100 nL compound, profiling panel (AID 1170); also: test concentration not given here
- condition.info: MM1S mitochondrial potential, higher = more signal
Listing: z-score of selected molecules
Answer using only a numeral; do not append any unit.

# example entries with known answers
{"structure.string": "COc1ccc(CCNC(=O)[C@@]2(C)c3ccccc3C(=O)N(c3ccc(C)cn3)[C@H]2c2ccc(CO)cc2)cc1", "endpoint.name": "z-score", "value": -0.00393}
{"structure.string": "C#CCOc1ccc(C[C@@H](C(=O)OC)N(CC#C)[C@@H](/C=C/C2CC2)[C@H](O)Cc2ccccc2)cc1", "endpoint.name": "z-score", "value": -0.524}
{"structure.string": "Cc1ccc(S[C@]2(C(=O)NCC(C)C)CC(=O)N(Cc3cc(C(F)(F)F)cc(C(F)(F)F)c3)[C@@H]2c2ccc(CO)cc2)cc1", "endpoint.name": "z-score", "value": -0.133}
{"structure.string": "COCCOC(=O)N1C(=O)[C@@]2(c3cc(C#CC4(O)CCCCCC4)ccc31)[C@H](C(=O)Nc1nc3ccccc3s1)[C@H]1C(=O)O[C@H](c3ccccc3)[C@H](c3ccccc3)N1[C@@H]2c1ccccc1OCCO", "endpoint.name": "z-score", "value": -0.876}
{"structure.string": "O[C@@H](Cc1ccccc1)[C@@H](/C=C/C1CC1)NCc1cccc(Cl)c1", "endpoint.name": "z-score", "value": -1.7}
{"structure.string": "COCCOC(=O)N1C(=O)[C@@]2(c3cc(C#CC4(O)CCCCCC4)ccc31)[C@H](C(=O)Nc1nc3ccccc3s1)[C@H]1C(=O)O[C@H](c3ccccc3)[C@H](c3ccccc3)N1[C@@H]2c1ccc(OCCO)cc1", "endpoint.name": "z-score", "value": -1.18}

For the next question, use this molecule.
Suppose we examine the molecule COCCOC(=O)N1C(=O)[C@@]2(c3cc(C#CCCO)ccc31)[C@H](c1ccc(OCCO)cc1)N1[C@H](c3ccccc3)[C@H](c3ccccc3)OC(=O)[C@H]1[C@@H]2C(N)=O ; what z-score value has been reported?
-0.0462

###

Listing: z-score of selected compounds
- method.summary: JC-1 mitochondrial signal, unstimulated myeloma cells – cell-based, JC-1 fluorescence, RPMI8226, 24 h, 100 nL compound, profiling panel (AID 1169); also: test concentration not given here
- condition.info: JC-1 mitochondrial potential fluorescence, higher = more signal
Answer using only a numeral; do not append any unit.

# example entries with known answers
{"compound": "[N-]=[N+]=Nc1ccccc1C[C@@]1(C(=O)N2CCCCC2)N=C(c2ccc(OCCCO)cc2)O[C@@H]1c1ccccc1N=[N+]=[N-]", "z-score": -1.3}
{"compound": "CO[C@H]1O[C@H](CO)[C@@H](OC(=O)Nc2ccc(Br)cc2)[C@@H]2OC(=O)[C@H](Cc3cccc(Br)c3)C/C=C/C[C@@H](Cc3cccc(Br)c3)C(=O)O[C@@H]12", "z-score": -0.209}
{"compound": "C#CCNCc1ccccc1", "z-score": -0.804}
{"compound": "CC(C)[Si](C#CCCCC#N)(Oc1ccccc1Br)C(C)C", "z-score": -0.756}
{"compound": "C=CCN1Cc2ccccc2[C@@H]2OC(c3ccc(OCCCO)cc3)=N[C@]2(CCS(=O)(=O)c2ccccc2)C1=O", "z-score": -1.06}

Suppose we examine the compound COCCCNC(=O)[C@@]1(Sc2ccc(C)cc2)CC(=O)N(Cc2ccccc2Cl)[C@@H]1c1ccc(CO)cc1 ; what z-score value has been reported?
0.118

Suppose we examine the compound CC[C@@H]1C=C(C(=O)O)[C@H](c2ccc(C)cc2)N1S(=O)(=O)c1ccc(C)cc1 ; what z-score value has been reported?
0.637

Suppose we examine the compound COc1ccc(C(O)C2C=CC3C(=O)N(C)C(=O)C3N2NC(=O)OC(C)(C)C)c2ccccc12 (configuration not stated) ; what z-score value has been reported?
0.674

Suppose we examine the compound CC(=O)NCCCC[C@@H]1NC(=O)[C@H]2C[C@@H](C(=O)O)[C@@H](c3ccc(O)cc3)N2C1=O ; what z-score value has been reported?
-0.621

Suppose we examine the compound C=CCNC(=O)[C@H]1[C@@H]2C(=O)O[C@@H](c3ccccc3)[C@@H](c3ccccc3)N2[C@@H](c2ccc(OCCO)cc2)[C@]12C(=O)Nc1ccc(C#CCC(C(=O)OC)C(=O)OC)cc12 ; what z-score value has been reported?
-0.817

Suppose we examine the compound COCC(=C=CC[C@H](O)c1ccccc1OCCO)CCO ; what z-score value has been reported?
-0.345

Suppose we examine the compound CC1CC/C=C\[C@H]2OC34C=CCN(Cc5ccccc5)C(=O)[C@H]3N(C(C)CO)C(=O)[C@@H]4C2C(=O)O1 (some centres not stated) ; what z-score value has been reported?
1.11

Suppose we examine the compound CCCC1(C(=O)OC)C=C2C(=C(c3ccccc3)C(=O)C2C)CN1 (configuration not stated) ; what z-score value has been reported?
-0.198

Suppose we examine the compound CC(=O)Nc1cc(Br)ccc1C(=O)NCc1ccccc1 ; what z-score value has been reported?
0.782

Suppose we examine the compound [N-]=[N+]=NCc1ccccc1[C@@H]1OC(c2ccc(OCCCO)cc2)=N[C@]1(CCS(=O)(=O)c1ccccc1)C(=O)N1CCCCC1 ; what z-score value has been reported?
-0.653

Suppose we examine the compound COCC(=C=CC[C@H](O)c1cccc(OCCO)c1)C[C@H](O)c1cc(Cl)cc(Cl)c1O ; what z-score value has been reported?
0.262

Suppose we examine the compound COCCOC(=O)N1C(=O)[C@@]2(c3cc(C#CC4(O)CCCCCC4)ccc31)[C@H](C(=O)Nc1nc3ccccc3s1)[C@H]1C(=O)O[C@H](c3ccccc3)[C@H](c3ccccc3)N1[C@@H]2c1ccc(OCCO)cc1 ; what z-score value has been reported?
-0.635
